# experimental-system: ERBB2/ERBB3 (Homo sapiens)
# test-protocol: PathHunter U2OS ERBB2/ERBB3 dimerization assay
pEC50: −log10 of the molar value.
measured-attribute: pEC50

# input Which measured pEC50 value corresponds to O=C(NC1CC1)C(Sc1nc2ccccc2c(=O)n1C1CCCC1)c1ccccc1 (stereo not shown) ?
# output < 4.49

---

# experimental-system: ERBB4/ERBB4 (Homo sapiens)
# Sequence (Q15303 26-1308): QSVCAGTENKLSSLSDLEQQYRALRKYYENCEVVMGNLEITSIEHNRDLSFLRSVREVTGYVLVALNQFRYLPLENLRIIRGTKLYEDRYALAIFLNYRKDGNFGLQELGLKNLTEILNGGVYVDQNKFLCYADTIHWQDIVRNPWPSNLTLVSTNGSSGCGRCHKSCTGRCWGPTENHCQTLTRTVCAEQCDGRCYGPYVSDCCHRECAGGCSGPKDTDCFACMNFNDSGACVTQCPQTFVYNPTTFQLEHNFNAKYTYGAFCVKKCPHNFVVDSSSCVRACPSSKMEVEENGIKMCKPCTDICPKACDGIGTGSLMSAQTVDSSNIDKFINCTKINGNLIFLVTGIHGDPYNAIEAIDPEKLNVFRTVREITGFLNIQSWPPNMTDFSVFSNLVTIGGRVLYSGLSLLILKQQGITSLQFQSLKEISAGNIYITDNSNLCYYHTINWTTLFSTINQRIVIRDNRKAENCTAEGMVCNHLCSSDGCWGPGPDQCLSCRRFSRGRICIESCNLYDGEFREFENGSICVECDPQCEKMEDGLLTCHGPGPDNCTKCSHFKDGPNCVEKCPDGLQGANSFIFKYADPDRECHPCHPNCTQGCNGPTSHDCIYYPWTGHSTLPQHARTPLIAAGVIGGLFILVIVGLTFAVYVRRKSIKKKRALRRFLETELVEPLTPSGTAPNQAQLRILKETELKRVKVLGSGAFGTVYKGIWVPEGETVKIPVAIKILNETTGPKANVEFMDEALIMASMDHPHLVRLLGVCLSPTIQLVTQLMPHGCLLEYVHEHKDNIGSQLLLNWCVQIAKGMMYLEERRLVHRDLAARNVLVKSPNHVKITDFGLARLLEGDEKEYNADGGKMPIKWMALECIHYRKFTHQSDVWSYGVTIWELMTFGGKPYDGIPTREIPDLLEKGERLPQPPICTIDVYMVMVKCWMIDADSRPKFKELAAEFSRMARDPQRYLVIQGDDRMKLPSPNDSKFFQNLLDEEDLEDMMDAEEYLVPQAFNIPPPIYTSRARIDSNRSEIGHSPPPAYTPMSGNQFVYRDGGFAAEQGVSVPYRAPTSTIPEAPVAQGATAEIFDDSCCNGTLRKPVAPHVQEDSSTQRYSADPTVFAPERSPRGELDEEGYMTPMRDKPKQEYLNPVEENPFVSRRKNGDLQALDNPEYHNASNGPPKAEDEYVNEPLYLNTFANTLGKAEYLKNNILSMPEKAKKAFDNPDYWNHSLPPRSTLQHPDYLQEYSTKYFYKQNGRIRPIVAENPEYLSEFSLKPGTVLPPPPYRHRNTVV
# Sequence (Q15303 26-1308): as above
# test-protocol: PathHunter U2OS ERBB4/ERBB4 dimerization assay, 96-well dose-response
# condition: Fig. 1 panels b, f-l
Rule: EC50 below 8 µM gives label 1. Equal to or above 8 µM gives label 0.

Illustrative cases are given below, each with its answer.
- Cc1sc2nc(SCC(=O)NC(C)(C#N)C(C)C)n(C3CCCC3)c(=O)c2c1C (stereo not shown) [EF-8]: label 0
- O=C1NCCCCC1Sc1nc2sc3c(c2c(=O)n1C1CCCC1)CCCC3 (stereo not shown) [EF-5]: label 1
- Cc1sc2nc(SC(C)C(=O)Nc3sccc3C(N)=O)n(CC(C)C)c(=O)c2c1C (stereo not shown) [EF-6]: label 1
- CC(Sc1nc2ccccc2c(=O)n1C1CCCC1)C(=O)N(C)c1ccccc1 (stereo not shown) [EF-3]: label 0
- CC(=O)c1ccc(NC(=O)C(C)Sc2nc3ccccc3c(=O)n2C2CCCC2)cc1 (stereo not shown) [EF-2]: label 1

Now, please, on to the next compound.
# input Consider CC(Sc1nc2ccccc2c(=O)n1C1CCCC1)c1nc2ccccc2n1C(F)F (stereo not shown) [EF-7] . Does its EC50 lie strictly below 8 µM?
# output label 1

---

# experimental-system: ERBB1/ERBB1 (Homo sapiens, UniProt P00533)
# Sequence (P00533 25-1210): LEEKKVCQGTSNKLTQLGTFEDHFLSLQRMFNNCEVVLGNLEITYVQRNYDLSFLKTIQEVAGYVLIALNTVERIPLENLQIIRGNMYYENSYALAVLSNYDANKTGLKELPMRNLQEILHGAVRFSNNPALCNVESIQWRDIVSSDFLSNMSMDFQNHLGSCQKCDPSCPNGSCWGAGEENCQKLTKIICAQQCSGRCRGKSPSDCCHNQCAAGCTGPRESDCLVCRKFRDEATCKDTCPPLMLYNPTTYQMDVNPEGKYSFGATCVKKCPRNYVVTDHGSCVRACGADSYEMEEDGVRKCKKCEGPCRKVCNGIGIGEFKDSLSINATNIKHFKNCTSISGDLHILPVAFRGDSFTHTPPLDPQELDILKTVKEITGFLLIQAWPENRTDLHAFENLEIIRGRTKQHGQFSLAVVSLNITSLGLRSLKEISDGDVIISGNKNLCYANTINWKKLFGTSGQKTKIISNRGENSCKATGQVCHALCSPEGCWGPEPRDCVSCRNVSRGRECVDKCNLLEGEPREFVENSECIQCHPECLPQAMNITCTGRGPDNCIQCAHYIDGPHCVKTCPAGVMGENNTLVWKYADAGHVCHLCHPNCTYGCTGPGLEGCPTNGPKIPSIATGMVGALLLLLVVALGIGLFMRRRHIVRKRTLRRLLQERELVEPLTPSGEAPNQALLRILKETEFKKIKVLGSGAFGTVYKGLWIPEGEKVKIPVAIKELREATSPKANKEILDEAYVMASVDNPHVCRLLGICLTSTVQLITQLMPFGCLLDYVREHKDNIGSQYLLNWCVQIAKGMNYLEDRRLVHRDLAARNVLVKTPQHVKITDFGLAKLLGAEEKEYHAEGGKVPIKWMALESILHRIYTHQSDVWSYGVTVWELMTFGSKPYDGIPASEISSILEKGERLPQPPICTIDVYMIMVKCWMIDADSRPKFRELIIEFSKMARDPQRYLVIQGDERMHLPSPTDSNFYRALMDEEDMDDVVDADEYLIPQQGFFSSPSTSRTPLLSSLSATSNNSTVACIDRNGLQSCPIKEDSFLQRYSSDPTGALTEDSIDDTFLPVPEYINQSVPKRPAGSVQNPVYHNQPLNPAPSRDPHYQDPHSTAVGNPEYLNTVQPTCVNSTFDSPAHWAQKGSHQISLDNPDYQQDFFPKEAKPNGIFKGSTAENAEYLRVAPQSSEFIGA
# Sequence (P00533 25-1210): as above
# test-protocol: PathHunter U2OS ERBB1/ERBB1 dimerization assay
pEC50: −log10 of the molar value.
measured-attribute: pEC50

# input Which measured pEC50 value corresponds to O=C(NC1CC1)C(Sc1nc2ccccc2c(=O)n1C1CCCC1)c1ccccc1 (stereo not shown) ?
# output < 4.49

---

# experimental-system: ERBB2/ERBB4 (Homo sapiens, UniProt Q15303)
# test-protocol: PathHunter U2OS ERBB2/ERBB4 dimerization assay
measured-attribute: EC50

# input # get_value(readout= EC50, system= ERBB2/ERBB4 (Homo sapiens, UniProt Q15303)) for O=C(NC1CC1)C(Sc1nc2ccccc2c(=O)n1C1CCCC1)c1ccccc1 (stereo not shown) [EF-1]
# output > 32 µM

meta.source: paper PMC11724075
